- TESTED ON: human thyroid hormone receptors TRα1 (Homo sapiens, UniProt P10827)
- Construct: made in house; host or cells: Sf9 insect cells (baculovirus)
- Sequence (P10827 1-410 isoform P10827-2): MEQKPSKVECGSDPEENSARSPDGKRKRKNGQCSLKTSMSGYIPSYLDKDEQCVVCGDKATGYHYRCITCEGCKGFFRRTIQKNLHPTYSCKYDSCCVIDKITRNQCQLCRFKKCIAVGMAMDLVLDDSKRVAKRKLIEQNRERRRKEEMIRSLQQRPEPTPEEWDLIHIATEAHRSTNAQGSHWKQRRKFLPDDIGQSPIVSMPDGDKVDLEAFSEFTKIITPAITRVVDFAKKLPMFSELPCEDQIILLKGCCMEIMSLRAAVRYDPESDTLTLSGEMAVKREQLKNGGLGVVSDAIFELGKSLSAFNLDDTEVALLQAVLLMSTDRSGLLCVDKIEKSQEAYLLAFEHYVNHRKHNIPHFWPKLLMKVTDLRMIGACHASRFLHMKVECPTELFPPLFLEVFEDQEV
- Sequence (P19793 1-462 partner): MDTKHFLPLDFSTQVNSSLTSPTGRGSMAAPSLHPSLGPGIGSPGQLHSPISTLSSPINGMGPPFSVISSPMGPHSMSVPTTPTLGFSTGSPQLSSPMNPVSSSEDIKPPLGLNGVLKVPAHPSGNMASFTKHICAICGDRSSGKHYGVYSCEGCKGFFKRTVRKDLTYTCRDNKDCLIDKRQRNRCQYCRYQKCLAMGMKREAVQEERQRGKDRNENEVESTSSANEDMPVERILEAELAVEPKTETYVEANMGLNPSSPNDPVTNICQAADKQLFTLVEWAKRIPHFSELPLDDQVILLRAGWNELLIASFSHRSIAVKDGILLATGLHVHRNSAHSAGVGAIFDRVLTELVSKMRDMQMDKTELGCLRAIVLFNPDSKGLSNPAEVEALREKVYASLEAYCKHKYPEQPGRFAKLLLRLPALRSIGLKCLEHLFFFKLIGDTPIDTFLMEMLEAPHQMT
- TEST SUMMARY: Receptor binding to TRα1 (gel filtration and scintillation proximity assay, labeled T3)
- CONDITION NOTES: SPA data; read-out: Ki TRα
PROPERTY NAME: Ki (nM)

Some solved cases for reference:
- COMPOUND: "Cc1cc(CCCP(=O)(O)O)cc(C)c1Oc1ccc(O)c(C(C)C)c1"
  Ki (nM): 661
- COMPOUND: "Cc1cc(OCP(=O)(O)O)cc(C)c1Cc1ccc(O)c(C(C)C)c1"
  Ki (nM): 58
- COMPOUND: "Cc1cc2oc(P(=O)(O)O)cc2c(C)c1Cc1ccc(O)c(C(C)C)c1"
  Ki (nM): 216

1: Cc1cc(Cc2c(C)cc(OCP(=O)(O)O)cc2C)ccc1O
2: CC(C)c1cc(Oc2c(Cl)cc(NCP(=O)(O)O)cc2Cl)ccc1O
3: CCC(C)c1cc(Cc2c(C)cc(CCP(=O)(O)O)cc2C)ccc1O (stereo not drawn)
4: Cc1cc(OCP(=O)(O)O)cc(C)c1Sc1ccc(O)c(C(C)C)c1
Could you please sort these 4 entries by Ki from high to low? Your task in answering is to list the labels in the requested order.
1, 4, 2, 3

----------
- TESTED ON: human thyroid hormone receptors TRβ1 (Homo sapiens, UniProt P10828)
- Construct: made in house; host or cells: Sf9 insect cells (baculovirus)
- Sequence (P10828 whole entry, one chain of several): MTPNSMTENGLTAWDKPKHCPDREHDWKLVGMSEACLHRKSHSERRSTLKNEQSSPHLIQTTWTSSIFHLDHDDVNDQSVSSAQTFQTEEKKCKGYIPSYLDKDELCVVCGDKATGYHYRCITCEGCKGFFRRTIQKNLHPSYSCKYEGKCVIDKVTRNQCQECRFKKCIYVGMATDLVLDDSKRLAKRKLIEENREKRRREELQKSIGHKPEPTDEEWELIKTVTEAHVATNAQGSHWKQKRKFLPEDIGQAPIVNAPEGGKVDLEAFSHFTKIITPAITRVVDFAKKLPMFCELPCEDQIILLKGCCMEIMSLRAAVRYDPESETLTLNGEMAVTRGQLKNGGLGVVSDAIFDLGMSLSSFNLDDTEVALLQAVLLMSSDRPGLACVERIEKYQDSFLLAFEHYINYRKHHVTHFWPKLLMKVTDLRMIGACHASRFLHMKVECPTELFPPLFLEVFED
- TEST SUMMARY: Receptor binding to TRβ1 (gel filtration and scintillation proximity assay, labeled T3)
- CONDITION NOTES: SPA data; read-out: Ki TRβ
PROPERTY NAME: Ki (nM)

Guide cases for Ki, answers given:
- COMPOUND: "Cc1cc(Cc2c(C)cc(OCP(=O)(O)O)cc2C)ccc1O [Compound 7-7]"
  TESTED ON: "human thyroid hormone receptors TRβ1 (Homo sapiens, UniProt P10828)"
  DISPLAY UNIT: "nM"
  Ki: 90
- COMPOUND: "CCc1cc(Cc2c(C)cc(CCP(=O)(O)O)cc2C)ccc1O [Compound 24-4]"
  TESTED ON: "human thyroid hormone receptors TRβ1 (Homo sapiens, UniProt P10828)"
  DISPLAY UNIT: "nM"
  Ki: 92
- COMPOUND: "Cc1cc(C(=O)CP(=O)(O)O)cc(C)c1Cc1ccc(O)c(Cc2ccccc2)c1 [Compound 41]"
  TESTED ON: "human thyroid hormone receptors TRβ1 (Homo sapiens, UniProt P10828)"
  DISPLAY UNIT: "nM"
  Ki: 181
- COMPOUND: "Cc1cc(OCP(=O)(O)O)cc(C)c1Cc1ccc(O)c(S(=O)(=O)C(C)C)c1 [Compound 44]"
  TESTED ON: "human thyroid hormone receptors TRβ1 (Homo sapiens, UniProt P10828)"
  DISPLAY UNIT: "nM"
  Ki: 44
- COMPOUND: "Cc1cc(CCP(=O)(O)O)cc(C)c1Cc1ccc(O)c(Cc2ccccc2)c1 [Compound 42]"
  TESTED ON: "human thyroid hormone receptors TRβ1 (Homo sapiens, UniProt P10828)"
  DISPLAY UNIT: "nM"
  Ki: 16.2

a: Cc1cc(OCP(=O)(O)O)cc(C)c1Cc1ccc(O)c(C(=O)NCCc2ccccc2)c1 [Compound 37]
b: Cc1cc(OC[P@]2(=O)OCC[C@@H](c3cccc(F)c3)O2)cc(C)c1Cc1ccc(O)c(C(C)C)c1 [Compound 13-3-trans]
Return label of the item with the larger Ki. Candidates: a , b . Refer to your chosen entry by its label in the reply.
b
(b: 2460 nM, a: 23 nM)

a: Cc1cc2oc(P(=O)(O)O)cc2c(C)c1Cc1ccc(O)c(C(C)C)c1 [Compound 45]
b: Cc1cc(OC[P@]2(=O)OCC[C@@H](c3ccc(Cl)cc3)O2)cc(C)c1Cc1ccc(O)c(C(C)C)c1 [Compound 13-6-trans]
Response body: label of entry with the larger Ki; valid values a , b . Give the label under which the chosen entry appears.
b

1: Cc1cc(/C=C/P(=O)(O)O)cc(C)c1Oc1ccc(O)c(C(C)C)c1 [Compound 28]
2: CC(C)c1cc(Oc2c(Br)cc(CP(C)(=O)O)cc2Br)ccc1O [Compound 71]
3: CC(C)c1cc(Cc2c(Cl)cc(OCP(=O)(O)O)cc2Cl)ccc1O [Compound 7-5]
Endpoint returns the given compounds ordered by ascending Ki. Reply with the labels, ordered as the question asks.
2, 3, 1

A: Cc1cc(OC[P@]2(=O)OCC[C@@H](c3cccc(Br)c3)O2)cc(C)c1Cc1ccc(O)c(C(C)C)c1 [Compound 13-2-trans]
B: Cc1cc(OC[P@]2(=O)OCC[C@@H](c3ccncc3)O2)cc(C)c1Cc1ccc(O)c(C(C)C)c1 [Compound 13-5-trans]
Smaller Ki value? Options are A and B Lab log: write the label of the selected item as the result.
B

----------
AUC overview
- TEST SUMMARY: Tissue distribution and pharmacokinetics following IP administration to normal rats
- Type: in vivo, SD rats
- CONDITION NOTES: male, SD, rat, plasma, 10 mg/kg IP
- Text: At pre-selected time points following dosing, the rats were anesthetized using iso-fluorane and the peritoneal cavity was then opened and a blood sample was obtained from the abdominal vena cava. […] The blood samples were briefly centrifuged and the plasma fraction was then extracted with 1.5 volumes of methanol, processed, and analyzed by LC-UV as described in Example G. The frozen liver, kidney, and heart tissue were homogenized in 60% v/v acetonitrile, centrifuged, and then analyzed by LC-UV. […]
# value in ng·h/mL; strip the unit string

- COMPOUND: "Cc1cc(OCC(=O)O)cc(C)c1Cc1ccc(O)c(C(C)C)c1 [Compound 17, reference compound]"
  PROPERTY NAME: "AUC"
  DISPLAY UNIT: "ng·h/mL"
  MEASURED NUMBER: 2800

For the next question, use this compound.
Indicate the recorded AUC value for this compound: Cc1cc(OCP(=O)(O)O)cc(C)c1Cc1ccc(O)c(C(C)C)c1
31600

----------
- TESTED ON: human thyroid hormone receptors TRβ1 (Homo sapiens)
- Construct: made in house; host or cells: Sf9 insect cells (baculovirus)
- TEST SUMMARY: Receptor binding to TRβ1 (gel filtration and scintillation proximity assay, labeled T3)
- CONDITION NOTES: SPA data; read-out: Ki TRβ
pKi: −log10 of the molar value.
PROPERTY NAME: pKi

Below: 5 molecules and their reported pKi.
- MOLECULE: "CC(C)c1cc(Oc2c(Cl)cc(NCP(=O)(O)O)cc2Cl)ccc1O"
  pKi: 7.51
- MOLECULE: "Cc1cc(OC[P@]2(=O)OCC[C@@H](c3cccc(Cl)c3)O2)cc(C)c1Cc1ccc(O)c(C(C)C)c1 [Compound 13-1-trans]"
  pKi: 5.88
- MOLECULE: "Cc1cc(OCP(=O)(O)O)cc(C)c1Cc1ccc(O)c(I)c1"
  pKi: 8.19
- MOLECULE: "Cc1cc(OCP(=O)(O)O)c(I)c(C)c1Cc1ccc(O)c(C(C)C)c1"
  pKi: 8.70
- MOLECULE: "Cc1cc(NCP(=O)(O)O)cc(C)c1Cc1ccc(O)c(C(C)C)c1"
  pKi: 8.60

I: Cc1cc(OCP(=O)(O)O)cc(C)c1Cc1ccc(O)c(C(=O)c2ccc(F)cc2)c1
II: Cc1cc(OCP(=O)(OCOC(=O)C(C)(C)C)OCOC(=O)C(C)(C)C)cc(C)c1Cc1ccc(O)c(C(C)C)c1
III: Cc1cc(OCP(=O)(O)O)cc(C)c1Cc1ccc(O)c(-c2ccccc2)c1
Form: Sort by [pKi] Order [ ascending ] Please, when replying, give the labels in the order that was requested.
II, III, I

1: Cc1cc(CC(=O)CP(=O)(O)O)cc(C)c1Oc1ccc(O)c(C(C)C)c1
2: O=P(O)(O)Cc1cc(Cl)c(Oc2ccc(O)c(S(=O)(=O)N3CCCCC3)c2)c(Cl)c1
// pick min by pKi: 1 , 2 Respond with the label that goes with your answer.
2

A: Cc1cc(OCP(=O)(O)O)cc(C)c1Cc1ccc(O)c(C2CC2)c1
B: Cc1cc2[nH]c(P(=O)(O)O)cc2c(C)c1Oc1ccc(O)c(C(C)C)c1
C: Cc1cc(CCCP(=O)(O)O)cc(C)c1Oc1ccc(O)c(C(C)C)c1
// ranking: key=pKi, reverse=True Labels, requested order.
A, C, B
(A: 8.05, C: 7.33, B: 6.92)

P: CCC(CC)c1cc(Cc2c(C)cc(OCP(=O)(O)O)cc2C)ccc1O
Q: Cc1cc(OCP(=O)(O)O)cc(C)c1Cc1ccc(O)c(Cc2ccc(F)cc2)c1
R: Cc1cc(CP(=O)(O)O)cc(C)c1Oc1ccc(O)c(C(C)C)c1
Sort (3 molecules) by pKi: min first. Order the labels as requested and give them as your answer.
R, P, Q
(R: 6.89, P: 8.27, Q: 8.96)
